The values you see were collected from ChEMBL document CHEMBL5550085.

Biological target: RNA
Test: Binding affinity to (CAG)10 repeat RNA (unknown origin) assessed as dissociation constant by SPR analysis
reported.endpoint: Kd (µM)
Numbers only, in µM.

# Kd lookup, item Cc1ccc2ccc(NC(=O)CCN(CCCCCN(CCC(=O)NCc3ccc4ccc(=O)[nH]c4n3)CCC(=O)Nc3ccc4ccc(C)nc4n3)CCC(=O)NCc3ccc4ccc(=O)[nH]c4n3)nc2n1
6.1
